Measured pEC50 values are reported for all entries that follow.
Test system: rat HEV replicon LA-B350/luc
Test: Antiviral activity against rat HEV replicon LA-B350/luc in Huh7 cells (Gaussia luciferase)
Assay type: cell-based
Conditions: Huh-7, 72 h, luminescence after 3 days, two or three experiments
Please express pEC50 as -log10 of the molar concentration.

>  <COMPOUND>
CC(C)OC(=O)[C@H](C)NP(=O)(OC[C@H]1O[C@@H](n2ccc(=O)[nH]c2=O)[C@@]2(CCS2)[C@@H]1O)Oc1ccccc1 (stereo partly shown)

>  <REPORTED>
4.57

$$$$
>  <COMPOUND>
CC(C)OC(=O)C(C)NP(=O)(OC[C@@]1(N=[N+]=[N-])O[C@@H](n2ccc(=O)[nH]c2=O)[C@@]2(CCS2)[C@@H]1O)Oc1ccccc1 (stereo in doubt)

>  <REPORTED>
6.13

$$$$
>  <COMPOUND>
CC(C)OC(=O)[C@H](C)NP(=O)(OC[C@@]1(F)O[C@@H](n2ccc(=O)[nH]c2=O)[C@@]2(CCS2)[C@@H]1O)Oc1ccccc1 (stereo partly shown)

>  <REPORTED>
5.23

$$$$

Pending compound:
Prompt: // returns reported pEC50 for input COC(=O)C(C)(C)NP(=O)(OC[C@H]1O[C@@H](n2ccc(=O)[nH]c2=O)[C@@]2(CCO2)[C@@H]1O)Oc1ccccc1 (stereo partly shown)
Response: 6.44

Origin of the recorded values: patent US20230201236A1
